meta.source: ChEMBL document CHEMBL1629527

Test system: Nakaseomyces glabratus
assay.overview: Antifungal activity against Candida glabrata 04-202345 after 48 to 72 hrs
Format: functional
Some compounds, each annotated with its measured MFC.
Only the number, expressed in µg/mL, is required.

C=CCCCc1cc[n+](CCCCCCCCCCCC[n+]2ccc(CCCC=C)cc2)cc1.[Cl-].[Cl-]    3
CCCCCc1cc[n+](CCCCCCCCCCCC[n+]2ccc(CCCCC)c(C)c2)cc1C.[Cl-].[Cl-]    3.2
CC(C)(C)CCc1cc[n+](CCCCCCCCCCCC[n+]2ccc(CCC(C)(C)C)cc2)cc1.[Cl-].[Cl-]    1.58

Next, consider the following compound.
Reported MFC for "CC(C)CCc1cc[n+](CCCCCCCCCCCC[n+]2ccc(CCC(C)C)cc2)cc1.[Cl-].[Cl-]" : what is it?
5.9
